Each recorded value in this set is attributed to patent US9113629B2.

Please respond with reported pest or weed control at 140 g/ha for every item in the list.
tested on: Key Grass and Sedge Weeds as well as Grass Crops; test: Post-emergent Test II herbicidal activity (Table 6); format: in vivo; conditions: post-emergence, 336 h, CYPES: yellow nutsedge (Cyperus esculentus), application rate 140 g ai/ha, read-out: Visual Growth Reduction (%) 14 Days After Application, CYPES

Some entries whose results are on file:
1. Nc1c(F)c(-c2ccc(OC(F)F)c(F)c2F)nc(C(=O)O)c1Cl = 0 to 29%
2. C=Cc1c(N)nc(-c2ccc(C(F)(F)F)c(F)c2)nc1C(=O)O = 45 to 59%

// each molecule listed below needs its pest or weed control at 140 g/ha
1. COC(=O)c1nc(-c2ccc(C#N)cc2)c(C)c(N)c1Cl
2. COC(=O)c1nc(-c2ccc(I)cc2)c(C)c(N)c1Cl
3. Nc1c(F)c(-c2cc(F)c(OC(F)F)cc2F)nc(C(=O)O)c1Cl
4. Nc1c(Cl)c(C(=O)O)nc(-c2ccc(Br)cc2)c1Cl
5. COc1c(N)nc(-c2cc(F)c(Br)cc2F)nc1C(=O)O
6. Nc1c(Cl)c(C(=O)O)nc(-c2ccc(Br)c(F)c2)c1Cl

Response given:
1: 0 to 29%; 2: 95 to 100%; 3: 0 to 29%; 4: 95 to 100%; 5: 45 to 59%; 6: 95 to 100%

// each molecule listed below needs its pest or weed control at 140 g/ha
1. COC(=O)c1nc(-c2ccc(Br)c(F)c2)nc(N)c1OC
2. COC(=O)c1nc(-c2cc(F)c(C(F)(F)F)cc2F)nc(N)c1OC
3. COc1c(N)nc(-c2ccc(Br)c(F)c2)nc1C(=O)O
4. COC(=O)c1nc(-c2cc(F)c(Br)cc2F)cc(N)c1Cl
5. Cc1c(-c2ccc(I)c(F)c2)nc(C(=O)O)c(Cl)c1N
6. COC(=O)c1nc(-c2ccc(C#N)c(F)c2)c(C)c(N)c1Cl
7. Cc1cc(F)c(-c2nc(C(=O)O)c(Cl)c(N)c2F)cc1F
8. C#Cc1ccc(-c2nc(C(=O)O)c(Cl)c(N)c2Cl)cc1

Response given:
1. 45 to 59%
2. 75 to 84%
3. 95 to 100%
4. 95 to 100%
5. 45 to 59%
6. 0 to 29%
7. 0 to 29%
8. 45 to 59%

// each molecule listed below needs its pest or weed control at 140 g/ha
1. COc1c(N)nc(-c2cc(F)c(I)cc2F)nc1C(=O)O
2. COc1c(N)nc(-c2ccc(I)c(F)c2)nc1C(=O)O
3. COC(=O)c1nc(-c2cc(F)c(C)cc2F)c(F)c(N)c1Cl
4. C=Cc1c(N)nc(-c2ccc(F)c(F)c2F)nc1C(=O)O
5. COc1c(N)nc(-c2ccc(C#N)cc2)nc1C(=O)O
6. COC(=O)c1nc(-c2ccc(OC(F)F)cc2)cc(N)c1Cl

Response given:
45 to 59%
0 to 29%
0 to 29%
60 to 74%
0 to 29%
75 to 84%
